Source of measurements: ChEMBL document CHEMBL1961873

Readings of inhibition for the listed compounds
Biological target: Angiopoietin-1 receptor (Homo sapiens)
Conditions: at 0.1 µM
Description: GSK_PKIS: TIE2 mean inhibition at 0.1 uM [Nanosyn]
Just the number in %, nothing appended.

Sample records with inhibition:
(Q) Using the record for CS(=O)(=O)CCNCc1ccc(-c2ccc3ncnc(Nc4ccc(OCc5ccccc5)c(Br)c4)c3c2)o1 , state its measured inhibition.
(A) 0.77

(Q) Using the record for COc1cc(Nc2ncc(-c3ccccc3)o2)cc(OC)c1OC , state its measured inhibition.
(A) 0.66

(Q) Using the record for COc1cc2ncn(-c3cc(OCCc4ccccc4)c(C(N)=O)s3)c2cc1OC , state its measured inhibition.
(A) 3.5

(Q) Using the record for Clc1ccc(CNc2nccc(-c3cnn4ncccc34)n2)cc1 , state its measured inhibition.
(A) 0.58

Others:
(Q) Using the record for O=C(Nc1n[nH]c2nc(-c3ccc(O)cc3)c(Br)cc12)C1CC1 , state its measured inhibition.
(A) 5.98

(Q) Using the record for O=C(NCC1CC1)c1ccc(-c2cccc(C(=O)NC3CC3)c2)cc1 , state its measured inhibition.
(A) 2.21

(Q) Using the record for CCc1cccc(CC)c1/C=C/c1cncc(C(=O)NC)c1 , state its measured inhibition.
(A) 1.3

(Q) Using the record for Nc1nccc(-c2c(-c3ccc(F)cc3)ncn2C2CCC(O)CC2)n1 (centres undefined) , state its measured inhibition.
(A) -0.11

(Q) Using the record for O=C1Nc2ccccc2/C1=C/Nc1ccc(-n2cncn2)cc1 , state its measured inhibition.
(A) 0.76

(Q) Using the record for O=C(Nc1n[nH]c2cc(-c3ccccc3)ccc12)C1CC1 , state its measured inhibition.
(A) 1.86

(Q) Using the record for c1ccc(Oc2ccc(Nc3ncc(-c4ccccc4)o3)cc2)cc1 , state its measured inhibition.
(A) 0.12

(Q) Using the record for CN1CCN(CCCNc2nc3ccc(Oc4ccc(NC(=O)Nc5cc(C(F)(F)F)ccc5F)cc4)cc3[nH]2)CC1 , state its measured inhibition.
(A) 9.94
